- Protocol: qHTS assay for small molecule agonists of the antioxidant response element (ARE) signaling pathway - cell viability counter screen (AID 743203); further: nearly all actives have a fitted effect of over 55% in size
- Condition: ARE-bla HepG2 viability, CellTiter-Glo luminescence, 16 h; series mostly up to 73.3 µM
Inconclusive results are not listed. The source made the active and inactive calls. The call rests on the fitted dose curve.
Parameter: outcome

1) CCN(CC)C(=O)Nc1ccc(OCC(O)CNC(C)(C)C)c(C(C)=O)c1 (stereo not drawn)    inactive
2) CCc1ccc(C(c2ccc(CC)cc2)C(Cl)Cl)cc1    inactive
3) CCC(CO)(CO)COCC(CC)(CO)CO    inactive

----------
- Protocol: qHTS assay to identify small molecule phospholipidosis (PLD) inducers (AID 1259344)
- Condition: HepG2 phospholipidosis, LipidTOX Red imaging, 24 h; series mostly up to 38.3 µM
Records with an inconclusive call do not appear. Active and inactive are the calls of the source. The call rests on the fitted dose curve; in most records, active means well fitted activation curve with a large enough effect; inconclusive means small, poorly fitted or top-dose-only effect; inactive means flat fitted curve, though single readings scatter.
Parameter: outcome

1. CCCNC(C)C(=O)Nc1ccccc1C (configuration not stated)    inactive
2. O=C1NCC2(CCN(CCc3ccccc3)CC2)O1    inactive
3. CCOc1ccc2c(c1)C(C)=CC(C)(C)N2    inactive
4. COc1nc(C)nc(Cl)c1NC1=NCCN1    inactive
5. N[C@@H]1CONC1=O    inactive
6. O=C(OCc1ccccc1)c1ccc(O)cc1    inactive
7. CCn1cc(C(=O)O)c(=O)c2cc(F)c(N3CCNC(C)C3)c(F)c21 (configuration not stated)    inactive

----------
- System tested: Aromatase (Homo sapiens) (UniProt P11511)
- Sequence (P11511 whole entry, looked up): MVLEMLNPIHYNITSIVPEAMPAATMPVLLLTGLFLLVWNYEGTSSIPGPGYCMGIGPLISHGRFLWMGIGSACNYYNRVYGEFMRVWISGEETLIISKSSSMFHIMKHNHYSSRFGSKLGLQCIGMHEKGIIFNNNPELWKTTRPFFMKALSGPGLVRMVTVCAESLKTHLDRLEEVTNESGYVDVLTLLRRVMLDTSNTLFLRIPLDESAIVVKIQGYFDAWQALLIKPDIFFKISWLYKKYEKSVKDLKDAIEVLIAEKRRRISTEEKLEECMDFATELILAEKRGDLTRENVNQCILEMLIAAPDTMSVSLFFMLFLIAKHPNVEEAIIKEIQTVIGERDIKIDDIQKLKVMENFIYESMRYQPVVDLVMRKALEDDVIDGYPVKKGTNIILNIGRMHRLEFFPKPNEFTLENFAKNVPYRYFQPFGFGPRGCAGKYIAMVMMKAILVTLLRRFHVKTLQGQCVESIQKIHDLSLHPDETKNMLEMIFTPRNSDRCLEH
- Protocol: qHTS assay to identify aromatase inhibitors (AID 743083); further: nearly all actives have a fitted effect of over 55% in size
- Condition: MCF-7 aro ERE, testosterone-driven ERE luciferase, 24 h; series mostly up to 70.3 µM
Inconclusive results are not listed. The source made the active and inactive calls. Calls follow the shape of the dose curve; as a rule, active = well fitted inhibition curve with a large enough effect in the repeat runs; inconclusive = weak or mixed curves; inactive = no such curve, though single readings can be large or run the other way.
Possible outcomes: T for active, F for inactive

1) CC(C)(C)NCC(O)c1cc(O)cc(O)c1 (configuration not stated)    F
2) CC[C@]1(O)C[C@@H]2CN(CCc3c([nH]c4ccccc34)[C@@](C(=O)OC)(c3cc4c(cc3OC)N(C)[C@H]3[C@@](O)(C(=O)OC)[C@H](OC(C)=O)[C@]5(CC)C=CCN6CC[C@]43[C@@H]65)C2)C1    T
3) CO[Si](OC)(OC)c1ccccc1    F
4) CCCN[C@H]1CCc2nc(N)sc2C1    F
5) COC(=O)/C=C/c1ccccc1    F
6) CC(=O)C1=C(C)[C@@H]2C[C@@]3(C1)[C@H](C)CC[C@H]3C2(C)C    F
7) CCCCOCCOC(=O)c1ccccc1C(=O)OCCOCCCC    F
8) NC(N)=NC(=O)Cc1c(Cl)cccc1Cl    F
9) CC(C)CCOCc1ccccc1    F
10) COC(=O)c1cccc(C(=O)OC)c1    F
11) C=C(C)C(=O)O    F
12) Nc1ccc2cc3ccccc3cc2c1    F
13) CCOC(=O)C(C)C(C)=O (configuration not stated)    F
14) NC(=Nc1ccccc1)Nc1ccccc1    T
15) CC(=O)N[C@@H](CS)C(=O)O    F
16) CCC(C)(C)C(=O)O[C@H]1C[C@@H](C)C=C2C=C[C@H](C)[C@H](CC[C@@H]3C[C@@H](O)CC(=O)O3)[C@H]21    F
17) C=CS(=O)(=O)O    F
18) Nc1nc(=S)c2[nH]cnc2[nH]1    F
19) CCCCC/C=C/CC1CC(=O)OC1=O (configuration not stated)    F
20) OCCN1CCNCC1    F
21) COc1cc(C(=S)N2CCOCC2)ccc1O    F
22) CC(N)=O    F
23) [Cl][In]([Cl])[Cl]    F
24) O=C(O)c1cccc(C(=O)O)c1    F
25) CCOc1ccccc1C(N)=O    F
26) Cc1ccnc2c1NC(=O)c1cccnc1N2C1CC1    F
27) CCC(C)(Oc1ccc(C2(c3ccc(OC(C)(CC)C(=O)O)cc3)CCCCC2)cc1)C(=O)O (configuration not stated)    F
